Read-out: MYC, MYC (gene 4609)
Assay: LTEA_HepaRG_MYC: Life Technologies and Expression Analysis (LTEA) Assay for MYC using HepaRG (AID 2283518)
Details: mRNA level, 48 h; actives raise or lower the signal
Calls of active or inactive are those of the source. The calls were made as follows: active = hit-call score of the fitted dose curve at least 0.9, where 1 is the maximum; inactive = score below 0.9.

{"columns": ["molecule", "AC50"],
 "data": [
  ["C=CCC1=C(C)[C@@H](OC(=O)[C@@H]2[C@@H](C=C(C)C)C2(C)C)CC1=O", "inactive"],
  ["COC(=O)C(C)Oc1ccc(Oc2ccc(Cl)cc2Cl)cc1 (stereo unspecified)", "inactive"],
  ["CCON=C(CC)C1=C(O)CC(c2c(C)cc(C)cc2C)CC1=O (stereo unspecified)", "inactive"],
  ["N#Cc1nn(-c2c(Cl)cc(C(F)(F)F)cc2Cl)c(N)c1S(=O)C(F)(F)F (stereo unspecified)", "35.1 µM (active)"],
  ["Fc1ccc(Oc2ccnc3cc(Cl)cc(Cl)c23)cc1", "inactive"],
  ["COC(=O)c1ccccc1C(=O)OC", "inactive"],
  ["CN(C)C(=S)SSC(=S)N(C)C", "inactive"],
  ["CCCCNC(=O)n1c(NC(=O)OC)nc2ccccc21", "inactive"],
  ["O=C(Nc1ccccc1)Nc1ccnc(Cl)c1", "inactive"],
  ["CON(C)C(=O)Nc1ccc(Cl)c(Cl)c1", "78.6 µM (active)"],
  ["CCNc1nc(Cl)nc(NCC)n1", "inactive"]
]}

* * *

Biological target: Estrogen receptor (Homo sapiens) (UniProt P03372)
Sequence (P03372 whole entry, looked up): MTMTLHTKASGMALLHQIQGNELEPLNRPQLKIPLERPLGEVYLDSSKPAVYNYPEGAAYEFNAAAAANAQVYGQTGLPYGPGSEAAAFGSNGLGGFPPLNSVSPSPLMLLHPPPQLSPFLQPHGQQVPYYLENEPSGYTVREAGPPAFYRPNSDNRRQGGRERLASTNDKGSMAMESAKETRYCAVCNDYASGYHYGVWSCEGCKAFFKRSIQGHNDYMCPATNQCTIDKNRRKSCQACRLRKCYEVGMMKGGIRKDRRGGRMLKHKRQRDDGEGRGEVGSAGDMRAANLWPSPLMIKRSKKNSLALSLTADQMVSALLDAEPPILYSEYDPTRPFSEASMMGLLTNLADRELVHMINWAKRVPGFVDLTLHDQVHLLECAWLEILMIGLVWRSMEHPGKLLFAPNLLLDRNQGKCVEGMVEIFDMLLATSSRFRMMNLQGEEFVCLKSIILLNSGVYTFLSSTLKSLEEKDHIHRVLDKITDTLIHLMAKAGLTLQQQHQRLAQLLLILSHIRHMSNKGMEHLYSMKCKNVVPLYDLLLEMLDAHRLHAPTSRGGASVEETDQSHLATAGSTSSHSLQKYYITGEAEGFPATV
Assay: ATG_ERa_TRANS: Attagene TRANS-FACTORIAL HepG2 Assay for human Estrogen Receptor alpha (ERa) (AID 2282970)
Details: HepG2 Attagene TRANS ERa GAL4 reporter, mRNA
Description: ATG_TRANS is a cell-based, multiplexed-readout assay that uses HepG2, a human liver cell line, with measurements taken at 24 hours after chemical dosing in a 24-well plate.ATG_ERa_TRANS is one of 30 assay component(s) measured or calculated from the ATG_TRANS assay. […] This assay endpoint, ATG_ERa_TRANS, was analyzed in the positive analysis fitting direction relative to DMSO as the negative control and baseline of activity. […]
Results filed as inconclusive are left out. Active and inactive are the calls of the source. How the source made its calls: active means hit-call score of the fitted dose curve at least 0.9, where 1 is the maximum; inconclusive means response in the unintended direction; inactive means score below 0.9.
Classes used: active, inactive

{"columns": ["molecule", "class.label"],
 "data": [
  ["C#CCOS(=O)OC1CCCCC1Oc1ccc(C(C)(C)C)cc1 (stereo not given)", "inactive"],
  ["COP(=S)(OC)Oc1nc(Cl)c(Cl)cc1Cl", "active"],
  ["CN(C)C(=S)SSC(=S)N(C)C", "inactive"],
  ["CCOC(=O)C(Cl)Cc1cc(-n2nc(C)n(C(F)F)c2=O)c(F)cc1Cl (stereo not given)", "inactive"],
  ["CC(C)(C)c1ccc(CSc2cnn(C(C)(C)C)c(=O)c2Cl)cc1", "active"],
  ["CCc1nn(C)c(C(=O)NCc2ccc(C(C)(C)C)cc2)c1Cl", "inactive"],
  ["COc1nc(NC(C)C)nc(NC(C)C)n1", "inactive"],
  ["CC(C)C1(C)N=C(c2nc3ccccc3cc2C(=O)O)NC1=O (stereo not given)", "inactive"],
  ["CO/C=C(/C(=O)OC)c1ccccc1Oc1cc(Oc2ccccc2C#N)ncn1", "inactive"],
  ["CON(C)C(=O)Nc1ccc(Cl)c(Cl)c1", "inactive"],
  ["CCOP(=S)(OCC)SCn1c(=O)oc2cc(Cl)ccc21", "active"],
  ["CC1=C(C(=O)Nc2ccccc2)SCCO1", "inactive"],
  ["CC1COC(Cn2cncn2)(c2ccc(Oc3ccc(Cl)cc3)cc2Cl)O1 (stereo not given)", "inactive"],
  ["N#Cc1cc(Br)c(O)c(Br)c1", "inactive"],
  ["CCCCOC(=O)c1ccccc1C(=O)OCCCC", "inactive"]
]}
